All values here come from patent US20210253725A1.

- Study Target: T1, CD137 expressed on the cell surface of HT1080_4-1BB cells (human, UniProt Q07011 24-255)
- T1 construct: whole, on cells; species not restated for the HT1080 transfectant
- T1 sequence (Q07011 24-255): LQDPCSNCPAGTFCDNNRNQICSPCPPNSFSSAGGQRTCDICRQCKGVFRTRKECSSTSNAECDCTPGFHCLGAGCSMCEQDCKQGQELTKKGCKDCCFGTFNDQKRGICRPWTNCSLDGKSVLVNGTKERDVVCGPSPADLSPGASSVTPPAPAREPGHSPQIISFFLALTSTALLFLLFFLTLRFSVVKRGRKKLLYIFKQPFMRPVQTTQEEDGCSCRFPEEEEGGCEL
- Assay Name: HT1080_4-1BB cells, imaging; note: test concentration or dose not given here
Measure: Cellular binding assay [RFU] (RFU)
One number for each entry, in RFU.

Endpoint output: Cellular binding assay [RFU] of P018.S.14.A.H01 (antibody, V domains shown, V regions on human Ig constant parts; also called AB137_12) VH: QSVEESGGRLVTPGTPLTLTCTVSGFSLSDYYMTWVRQAPGKGLEYIGIMSGSGSTYYASWAKGRFTISKTSSTTLELKITSPTTEDTAIYFCARDGDYAGWGYATGAFDPWGPGTLVTVSS VL: AAVLTQTPSPVSAAVGGTVTISCQASQSVVGNSLLSWFQKKPGQPPKLLIYSASSLASGVPSRFKGSGSGTQFTLTISDLESDDAATYYCTGRYNSDTDTFVFGGGTEVVVK . Value?
6
